Origin of the recorded values: patent US20220332795A1

target: T1, human CD71 extracellular domain (human, UniProt P02786 89-760, biotinylated); experiment: solution ELISA screen, signal ratio to HSA control
T1 construct: extracellular domain; also called hCD71; huCD71 ECD
T1 sequence (P02786 other isoform, or with tags, fused parts or gaps): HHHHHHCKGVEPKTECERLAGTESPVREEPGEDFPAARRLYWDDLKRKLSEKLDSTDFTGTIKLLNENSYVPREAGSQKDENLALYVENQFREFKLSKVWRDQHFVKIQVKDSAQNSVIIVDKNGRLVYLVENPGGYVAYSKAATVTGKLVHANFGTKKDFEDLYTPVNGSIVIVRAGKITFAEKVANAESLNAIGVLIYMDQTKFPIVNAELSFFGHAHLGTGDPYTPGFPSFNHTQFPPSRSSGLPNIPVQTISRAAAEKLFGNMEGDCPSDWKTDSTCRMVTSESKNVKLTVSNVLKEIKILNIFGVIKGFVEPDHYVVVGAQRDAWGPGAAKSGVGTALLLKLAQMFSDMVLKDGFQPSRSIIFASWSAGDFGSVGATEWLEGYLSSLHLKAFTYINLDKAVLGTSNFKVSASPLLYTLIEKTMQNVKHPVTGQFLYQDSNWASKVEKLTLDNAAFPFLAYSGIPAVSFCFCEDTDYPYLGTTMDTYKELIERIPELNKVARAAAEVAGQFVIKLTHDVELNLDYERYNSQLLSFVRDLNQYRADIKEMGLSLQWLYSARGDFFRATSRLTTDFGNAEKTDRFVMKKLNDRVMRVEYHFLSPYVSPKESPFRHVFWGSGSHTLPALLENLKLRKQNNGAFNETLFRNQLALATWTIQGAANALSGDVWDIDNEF
Give hCD71:HSA for every item shown.
Answers are plain numbers, in ratio.

Consider the following illustrative entries.
binder	val
SEQ ID NO 232 (designed binder, not shown: small tags and cut ends) MLPAPKNLVVSRVTEDSARLSWTAPDAAFDSFFIGYLEPQPPGEAIYLDVPGSERSYDLTGLKPGTEYNVTIQGVKGGFPSTFTT	14.3
SEQ ID NO 259 (designed binder, not shown: small tags and cut ends) MLPAPKNLVVSRVTEDSARLSWTAPDAAFDSFYIAYAEPRPDGEAIQLGVPGSERSYDLTGLKPGTEYSVLIHGVKGGLLSSPLLAVFTT	49.7
SEQ ID NO 204 (designed binder, not shown: small tags and cut ends) MLPAPKNLVVSRVTEDSARLSWTAPDAAFDSFFIGYLEPQPPGEAILLWVPGSERSYDLTGLKPGTEYNVTIQGVKGGFPSQFTT	164
SEQ ID NO 231 (designed binder, not shown: small tags and cut ends) MLPAPKNLVVSRVTEDSARLSWTAPDAAFDSFFIGYLEPQPPGEAIHLYVPGSERSYDLTGLKPGTEYNVTIQGVKGGFPSDPLDAVFTT	112
SEQ ID NO 233 (designed binder, not shown: small tags and cut ends) MLPAPKNLVVSRVTEDSARLSWTAPDAAFDSFYIAYAEPRPDGEAIQLFVPGSERSYDLTGLKPGTEYSVLIHGVKGGLLSSPLKAYFTT	35.1
SEQ ID NO 238 (designed binder, not shown: small tags and cut ends) MLPAPKNLVVSRVTEDSARLSWTTPDAAFDSFYIAYAEPRPDGEAIRLQVPGSERSYDLTGLKPGTEYSVLIHGVKGGLLSSPLGFTT	31
SEQ ID NO 230 (designed binder, not shown: small tags and cut ends) MLPAPKNLVVSRVTEDSARLSWTAPDAAFDSFYIAYAEPRPDGEAIWLLVPGSERSYDLTGLKPGTEYSVLIHGVKGGLLSSPLVAFFTT	34.4
SEQ ID NO 211 (designed binder, not shown: small tags and cut ends) MLPAPKNLVVSRVTEDSARLSWTAPDAAFDSFYIAYAEPRPDGEAIQLHVPGSERSYDLTGLKPGTEYSVLIHGVKGGLLSSPLVAIFTT	50.6
SEQ ID NO 225 (designed binder, not shown: small tags and cut ends) MLPAPKNLVVSRVTEDSARLSWTAPDAAFDSFYIAYAEPRPDGEAILLQVPGSERSYDLTGLKPGTEYSVLIHGVKGGLLSSPLSASFTT	239
SEQ ID NO 246 (designed binder, not shown: small tags and cut ends) MLPAPKNLVVSRVTEDSARLSWTAPDAAFDSFYIAYAEPRPDGEAIQLHVPGSERSYDLTGLKPGTEYSVLIHGVKGGLLSSPLYAFFTT	21.3

Please state hCD71:HSA for every binder in the list that follows.
1. SEQ ID NO 266 (designed binder, not shown: small tags and cut ends) MLPAPKNLVVSRVTEDSARLSWTAPDAAFDSFYIAYAEPRPDGEAIRLQVPGSERSYDLTGLKPGTEYSVLIHGVKGGLLSSPLGASFTT
2. SEQ ID NO 221 (designed binder, not shown: small tags and cut ends) MLPAPKNLVVSRVTEDSARLSWTAPDAAFDSFFIGYLEPQPPGEAIFLDVPGSERSYDLTGLKPGTEYNVTIQGVKGGFPSPLTAFFTT
3. SEQ ID NO 223 (designed binder, not shown: small tags and cut ends) MLPAPKNLVVSRVTEDSARLSWTAPDAAFDSFFIGYLEPQPPGEAIGLAVPGSERSYDLTGLKPGTEYNVTIQGVKGGFPSVPLQANFTT
4. SEQ ID NO 222 (designed binder, not shown: small tags and cut ends) MLPAPKNLVVSRVTEDSARLSWTAPDAAFDSFFIGYLEPQPPGEAIVLDVPGSERSYDLTGLKPGTEYNVTIQGVKGGFPSHPLAAAFTT
5. SEQ ID NO 207 (designed binder, not shown: small tags and cut ends) MLPAPKNLVVSRVTEDSARLSWTAPDAAFDSFYIAYAEPRPDGEAIHLSVPGSERSYDLTGLKPGTEYSVLIHGVKGGLLSSPLAAYFTT
6. SEQ ID NO 255 (designed binder, not shown: small tags and cut ends) MLPAPKNLVVSRVTEDSARLSWTAPDAAFDSFFIGYLEPQPPGEAILLFVPGSERSYDLTGLKPGTEYNVTIQGVKGGFPSTPLSASFTT
7. SEQ ID NO 253 (designed binder, not shown: small tags and cut ends) MLPAPKNLVVSRVTEDSARLSWTAPDAAFDSFYIAYAEPRPDGEAIILHVPGSERSYDLTGLKPGTEYSVLIHGVKGGLLSSPLDAYFTT

Reply:
1: 11.6; 2: 16.4; 3: 105; 4: 94.5; 5: 22.6; 6: 49.1; 7: 92

For SEQ ID NO 245 (designed binder, not shown: small tags and cut ends) MLPAPKNLVVSRVTEDSARLSWTAPDAAFDSFYIAYAEPRPDGEAIALWVPGSERSYDLTGLKPGTEYSVLIHGVKGGLLSSPLVASFTT the binder record lists hCD71:HSA as 41.9
